All figures here come from patent US20060211670A1.

Tested on: DU145 human prostate tumor cells
Test: Inhibition of cell proliferation (crystal violet), DU145
Format: cell-based
Details: DU145, 4 days incubation
pIC50: −log10 of the molar value.
test_readout: pIC50

[A] CCc1cc2c(cc1OS(N)(=O)=O)CC[C@@H]1[C@@H]2CC[C@]2(CC)[C@@H](OS(N)(=O)=O)CC[C@@H]12
[B] CCOc1cc2c(cc1OS(N)(=O)=O)CC[C@@H]1[C@@H]2CC[C@]2(CC)[C@@H](O)CC[C@@H]12
[C] COc1cc2c(cc1O)CC[C@@H]1[C@@H]2CC[C@]2(C)[C@@H](O)CC[C@@H]12 [2-Methoxyestradiol, reference compound]
Task: Put the items above in order of decreasing pIC50. Field: ranking. Enter the labels in the order requested.
Result: A, B, C
(A: 6.74, B: 6.05, C: 5.72)
